B1: LINE1-full (parent)
chain: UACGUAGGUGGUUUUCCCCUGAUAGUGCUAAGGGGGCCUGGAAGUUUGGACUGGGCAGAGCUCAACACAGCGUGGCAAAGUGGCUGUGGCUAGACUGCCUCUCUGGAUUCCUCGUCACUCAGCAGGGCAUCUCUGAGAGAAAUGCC

Variants of: B1
measurementDescription: self-cleavage, relative activity (ratio to wild type); higher = more cleavage; in vitro, sequencing; the parent is a self-cleaving ribozyme
measureName: self-cleavage
Numbers only.

> print(dat)
   mutantcode    measurename  reportedvalue
1   C37A U45C  self-cleavage           1.01
2    U5C G75A  self-cleavage           1.15
3  U26C A117G  self-cleavage           1.51
4  C28A U102A  self-cleavage           1.12
5   C3U G127A  self-cleavage           0.89

Consider the following items and state reported self-cleavage for each.
1. A64C A67U
2. A57U C66G
3. C56U A141G
4. U26C C76U

1. 0.11
2. 0.05
3. 0.14
4. 1.87

Consider the following items and state reported self-cleavage for each.
1. U13G U39C
2. G93U U108C
3. G32A A129U
4. A64G G125A
5. U91C G114A
6. A69G U130C
7. A24G G75A
8. U14C U87A

1: 0.7; 2: 0.05; 3: 1.15; 4: 0.31; 5: 0.57; 6: 0.67; 7: 1.02; 8: 0.15

Consider the following items and state reported self-cleavage for each.
1. A6U A77G
2. G7A C56U
3. U29A G89U
4. U46C A69C
5. U109C A142G
6. A42G C111U

1. 1.51
2. 0.17
3. 0.04
4. 0
5. 0.77
6. 1.37

Consider the following items and state reported self-cleavage for each.
1. A57G U73A
2. A24G U104A
3. A69U U87C
4. U112A
5. G89A A140U
6. U12C U62C
7. A6G U100C

1: 0.37; 2: 1.24; 3: 0.06; 4: 1.43; 5: 0.02; 6: 0.09; 7: 0.87

Consider the following items and state reported self-cleavage for each.
1. G54U C84U
2. U13A U108C
3. G41A A79G
4. C95U A138U
5. C71A U96A
6. U46C G82A
7. U1G A78G
8. C38U G144A

1: 0.07; 2: 1.02; 3: 1; 4: 0.2; 5: 0.09; 6: 2.42; 7: 1.25; 8: 1.36

Consider the following items and state reported self-cleavage for each.
1. U46C C145U
2. U5C U143C
3. G27A U143C

[1.58, 0.11, 1.38]

Consider the following items and state reported self-cleavage for each.
1. U12C G127C
2. U20A G49A
3. A121G A129G
4. U15C U26A
5. U29A A94G

1: 1.84; 2: 1.37; 3: 1.58; 4: 1.16; 5: 0.54

Consider the following items and state reported self-cleavage for each.
1. A94C
2. U91C C98U
3. U47A A65G
4. G8A U143C

0.06
0.19
0.07
1.45
